- Measured Target: trypsin (Bos taurus, UniProt P00760)
- Construct: chymotrypsin and trypsin derived from fetal bovine pancreas; purchased Sigma-Aldrich Chemical Co; host or cells: bovine pancreas
- Sequence (P00760 24-246): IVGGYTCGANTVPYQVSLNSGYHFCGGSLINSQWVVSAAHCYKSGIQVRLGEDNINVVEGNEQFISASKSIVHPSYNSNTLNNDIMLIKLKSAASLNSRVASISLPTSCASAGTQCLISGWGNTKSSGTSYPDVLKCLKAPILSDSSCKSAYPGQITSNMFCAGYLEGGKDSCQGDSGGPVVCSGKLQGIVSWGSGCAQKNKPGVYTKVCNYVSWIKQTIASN
- Assay Info: Degree of hydrolysis by protease (Table 3)
- Assay type: biochemical, bovine
- Measurement Setup: after 2 hours; protease 10 μM; substrate 0.2 mM (G1-G3, L1-L3) or 0.1 mM (G4, L4); n.d. = no hydrolysis was detected; hydrolysate INH
Metric Name: degree of hydrolysis by Trypsin (%)
API: value field is a number in %; no unit string.

| Molecule | Unit Abbreviation | Measured |
| --- | --- | --- |
| CC(C)(C)OC(=O)NC(Cc1ccc(O)cc1)C(=O)NC(CCCCN)C(=O)NNC(=O)c1ccncc1 (stereo not drawn) [Substrate L1, Boc-Tyr-Lys-INH] | % | 69.6 |
| CC(C)(C)OC(=O)NC(Cc1ccc(O)c(-c2cc(CC(NC(=O)OC(C)(C)C)C(=O)NC(CCCCN)C(=O)NNC(=O)c3ccncc3)ccc2O)c1)C(=O)NC(CCCCN)C(=O)NNC(=O)c1ccncc1 (stereo not shown) [Substrate L4, DBDY-(Lys-INH)2] | % | 46.8 |

Prompt: Dear colleague, I am looking for the recorded degree of hydrolysis by Trypsin of the following molecule: CC(C)(C)OC(=O)NC(Cc1ccccc1)C(=O)NC(CCCCN)C(=O)NNC(=O)c1ccncc1 (stereo not drawn) [Substrate L2, Boc-Phe-Lys-INH]
Completion: 81.2

Prompt: Dear colleague, I am looking for the recorded degree of hydrolysis by Trypsin of the following molecule: CC(C)(C)OC(=O)NC(Cc1c[nH]c2ccccc12)C(=O)NC(CCCCN)C(=O)NNC(=O)c1ccncc1 (stereo not drawn) [Substrate L3, Boc-Trp-Lys-INH]
Completion: 85.1

* * *

We begin with a simple list: items and their reported degree of hydrolysis by Papain.
- Measured Target: papain (Carica papaya, UniProt P00784)
- Construct: papain and chymopapain derived from papaya latex; purchased Sigma-Aldrich Chemical Co; host or cells: papaya latex
- Sequence (P00784 134-345): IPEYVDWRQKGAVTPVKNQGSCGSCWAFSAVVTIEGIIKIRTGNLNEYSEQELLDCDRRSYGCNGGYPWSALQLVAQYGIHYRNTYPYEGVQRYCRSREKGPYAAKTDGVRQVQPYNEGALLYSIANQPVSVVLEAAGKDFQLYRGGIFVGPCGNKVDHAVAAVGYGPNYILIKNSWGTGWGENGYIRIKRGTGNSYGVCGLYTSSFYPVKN
- Assay Info: Degree of hydrolysis by protease (Table 3)
- Assay type: biochemical, papaya latex
- Measurement Setup: after 2 hours; protease 10 μM; substrate 0.2 mM (G1-G3, L1-L3) or 0.1 mM (G4, L4); hydrolysate INH
API: value field is a number in %; no unit string.

Some solved entries appear below for comparison.
| Compound | Unit Abbreviation | Measured |
| --- | --- | --- |
| CC(C)(C)OC(=O)NC(Cc1ccc(O)c(-c2cc(CC(NC(=O)OC(C)(C)C)C(=O)NCC(=O)NNC(=O)c3ccncc3)ccc2O)c1)C(=O)NCC(=O)NNC(=O)c1ccncc1 (centres unmarked) [Substrate G4, DBDY-(Gly-INH)2] | % | 62.2 |
| CC(C)(C)OC(=O)NC(Cc1c[nH]c2ccccc12)C(=O)NC(CCCCN)C(=O)NNC(=O)c1ccncc1 (stereo not drawn) [Substrate L3, Boc-Trp-Lys-INH] | % | 93.1 |
| CC(C)(C)OC(=O)NC(Cc1ccc(O)cc1)C(=O)NCC(=O)NNC(=O)c1ccncc1 (stereo not drawn) [Substrate G1, Boc-Tyr- Gly-INH] | % | 62.8 |

Prompt: Dear colleague, I am looking for the recorded degree of hydrolysis by Papain of the following compound: CC(C)(C)OC(=O)NC(Cc1ccccc1)C(=O)NC(CCCCN)C(=O)NNC(=O)c1ccncc1 (stereo not drawn) [Substrate L2, Boc-Phe-Lys-INH]
Completion: 89.1

Prompt: Dear colleague, I am looking for the recorded degree of hydrolysis by Papain of the following compound: CC(C)(C)OC(=O)NC(Cc1ccc(O)cc1)C(=O)NC(CCCCN)C(=O)NNC(=O)c1ccncc1 (stereo not drawn) [Substrate L1, Boc-Tyr-Lys-INH]
Completion: 77.4
